Reference source for all entries: patent US20230192691A1

# STUDY TARGET: human-derived recombinant BTK protein (Homo sapiens, UniProt Q06187)
# Sequence (Q06187 whole entry): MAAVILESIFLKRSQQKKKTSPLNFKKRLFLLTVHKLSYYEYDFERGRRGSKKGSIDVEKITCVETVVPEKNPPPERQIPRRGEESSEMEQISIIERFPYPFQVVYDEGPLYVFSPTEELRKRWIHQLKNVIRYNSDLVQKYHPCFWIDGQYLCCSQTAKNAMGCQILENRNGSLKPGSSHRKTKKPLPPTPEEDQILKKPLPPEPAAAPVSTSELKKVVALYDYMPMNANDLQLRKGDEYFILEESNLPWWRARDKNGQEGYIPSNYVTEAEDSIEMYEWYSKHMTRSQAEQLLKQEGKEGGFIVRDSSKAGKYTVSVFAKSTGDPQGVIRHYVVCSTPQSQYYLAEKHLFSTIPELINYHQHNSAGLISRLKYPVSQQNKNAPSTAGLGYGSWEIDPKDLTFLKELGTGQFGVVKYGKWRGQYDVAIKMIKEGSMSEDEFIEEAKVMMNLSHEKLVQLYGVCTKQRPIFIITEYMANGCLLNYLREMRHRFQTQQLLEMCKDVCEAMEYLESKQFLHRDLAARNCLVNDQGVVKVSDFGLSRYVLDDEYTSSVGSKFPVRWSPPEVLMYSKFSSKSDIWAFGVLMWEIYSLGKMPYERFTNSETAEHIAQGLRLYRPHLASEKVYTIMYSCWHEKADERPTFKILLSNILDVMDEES
# TEST DESCRIPTION: BTK activity inhibition assay (HTRF in vitro kinase assay)
# RUN CONDITIONS: 40 μM ATP, 0.2 ng/μL BTK
MEASUREMENT NAME: IC50 (nM)
Write the number in nM without appending the unit.

Consider the reported IC50 for these compounds:
> print(dat)
                                   compound  measurement.name  readout.number
1  COc1ccc(C)nc1C(=O)NCc1ccc(-c2nc(C3CCCOC3)n3ccnc(N)c23)cc1 (stereo not shown)              IC50             212
2  COc1ccc(F)cc1C(=O)NCc1ccc(-n2c(=O)n([C@H]3CC[C@H](CO)CC3)c3ncnc(N)c32)cc1              IC50             2.4
3  COC(=O)C12CC(c3nc(-c4ccc(CNC(=O)c5cc(F)ccc5OC)cc4)c4c(N)ncnn34)(C1)C2              IC50             1.2

// switching to the query compound
Tell me measured IC50 for COc1ccc(F)cc1C(=O)NCc1ccc(-c2nc(N3CCOCC3)n3ccnc(N)c23)cc1 please.
10

====

# STUDY TARGET: human-derived recombinant BTK protein (Homo sapiens)
# TEST DESCRIPTION: BTK activity inhibition assay (HTRF in vitro kinase assay)
# RUN CONDITIONS: 40 μM ATP, 0.2 ng/μL BTK
MEASUREMENT NAME: pIC50
For clarity, pIC50 is expressed as the negative log10 of concentration in mol/L.

> print(dat)
                              line.notation  measurement.name  readout.number
1  COc1ccc(F)cc1C(=O)NCc1ccc(-c2nc([C@]3(C)CC[C@@](C)(C(=O)O)CC3)n3ncnc(N)c23)cc1             pIC50            8.89
2  COc1ccc(F)cc1C(=O)NCc1ccc(-c2nc(C3(C(F)(F)F)CC3)n3ncnc(N)c23)cc1             pIC50            8.57
3  CNC(=O)C12CCC(c3nc(-c4ccc(CNC(=O)c5cc(F)ccc5OC)cc4)c4c(N)nccn34)(CC1)CC2             pIC50            9.05

--- query ---
Annotate the compound COc1ccc(F)cc1C(=O)NCc1ccc(-c2nc(C34CCC(CO)(CC3)CC4)n3ccnc(N)c23)cc1 with its measured pIC50.
9.22

====

# STUDY TARGET: human-derived recombinant BTK protein (Homo sapiens)
# TEST DESCRIPTION: BTK activity inhibition assay (HTRF in vitro kinase assay)
# RUN CONDITIONS: 40 μM ATP, 0.2 ng/μL BTK
Readings of log10 IC50 for the listed compounds
In plain terms, each number is the log10 of measured IC50 in nM.

Return log10 IC50 (reported value) for this compound: COc1ccc(F)cc1C(=O)NCc1ccc(-n2c(=O)n(C3CCOCC3)c3ncnc(N)c32)cc1
0.60

Give log10 IC50 for COc1ccc(F)cc1C(=O)NCc1ccc(-c2nc([C@]3(C)CC[C@](C)(C(=O)O)CC3)n3ccnc(N)c23)cc1
0.41

Report measured log10 IC50; entry is COc1ccc(F)cc1C(=O)NCc1ccc(-c2nn(C3CCOCC3)c3ccnc(N)c23)cc1
1.23

Answer with the recorded log10 IC50 of COc1ccc(F)cc1C(=O)NCc1ccc(-c2nc([C@]3(C)CC[C@](C)(C(=O)O)CC3)n3ncnc(N)c23)cc1 only.
0.89

State its log10 IC50: COC(=O)C12CCC(c3nc(-c4ccc(CNC(=O)c5cc(F)ccc5OC)cc4)c4c(N)ncnn34)(CC1)CC2
0.00

// Input: COc1ccc(F)cc1C(=O)NCc1ccc(-c2nc(C3CCCOC3)n3ncnc(N)c23)cc1 (stereo not drawn) . Output its log10 IC50 only.
0.26

Specify measured log10 IC50 for CNC(=O)[C@H]1CC[C@H](c2nc(-c3ccc(CNC(=O)c4cc(F)ccc4OC)cc3)c3c(N)nccn32)CC1 .
0.00

Note down log10 IC50 recorded for Nc1nccn2c(C3CCC(CO)OC3)nc(-c3ccc(CNC(=O)c4ccccn4)cc3)c12 (stereo not drawn)
2.86

Dear colleague, please send me the reported log10 IC50 for COC(=O)C12CCC(c3nc(-c4ccc(CNC(=O)c5cc(F)ccc5OC)cc4)c4c(N)nccn34)(CC1)C2 when you can.
0.46
